system: RERF-LC-KJ (Lung Adenocarcinoma); assay: Bliss excess, mean over the matrix (fraction); higher = more synergy;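 also: after 72 h of two-drug dosing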
Outcome Measure: Bliss excess
Response field accepts a number only; no unit should be typed.

Complete the entry with Bliss excess for COc1nnc2ccc(N3CCC(c4ccc(OCCN5CCN(C)C(=O)[C@H]5C)cc4)CC3)nn12 [AZD5153] + CN(CC[C@H](CSC1=CC=CC=C1)NC2=C(C=C(C=C2)S(=O)(=O)NC(=O)C3=CC=C(C=C3)N4CCC(CC4)[C@H](C5=CC=CC=C5C6=CC=C(C=C6)Cl)O)S(=O)(=O)C(F)(F)F)CCO [AZD4320] (first compound max 1 µM, 7x7, partner max 1 µM)
-0.0066

Name the recorded Bliss excess of the item Cn1cnc2c(F)c(Nc3ccc(Br)cc3Cl)c(C(=O)NOCCO)cc21 [Selumetinib] + C[C@@H]1COCCN1C2=NC(=NC(=C2)C3(CC3)[S@](=N)(=O)C)C4=C5C=CNC5=NC=C4 [AZD6738] (first compound max 10 µM, 7x7, partner max 10 µM) in your answer.
0.0075

Look up and report measured Bliss excess for this entry: CN(CCO)CC[C@H](CSc1ccccc1)Nc1ccc(S(=O)(=O)NC(=O)c2ccc(N3CCC([C@@H](O)c4ccccc4-c4ccc(Cl)cc4)CC3)cc2)cc1S(=O)(=O)C(F)(F)F [AZD4320] + C[C@@H]1COCCN1C2=NC(=NC(=C2)C3(CC3)[S@](=N)(=O)C)C4=C5C=CNC5=NC=C4 [AZD6738] (first compound max 1 µM, 7x7, partner max 10 µM)
-0.0377
